Origin of the recorded values: ChEMBL document CHEMBL5321275

Test: Half life in ICR mouse at 50 mg/kg, po measured upto 96 hrs by HPLC-MS/MS analysis
Format: ADME, organism-based
Settings: in vivo
parameterMeasured: half-life (h)

[[record]]
molecule = "CN1CCN(c2cc3c(cc2Nc2nnc(-c4ccc(C(F)(F)F)cc4)s2)nc(-c2ccc(F)cc2)n3C2CC2)CC1"
quantitativeresult = 9.94


---

Experiment: MRT (0 to infinity) in ICR mouse at 50 mg/kg, po measured upto 96 hrs by HPLC-MS/MS analysis
Type: ADME, organism-based
Conditions: in vivo
parameterMeasured: MRT inf (h)

[[record]]
molecule = "CN1CCN(c2cc3c(cc2Nc2nnc(-c4ccc(C(F)(F)F)cc4)s2)nc(-c2ccc(F)cc2)n3C2CC2)CC1"
quantitativeresult = 17.3

